Listed next: entries and their corresponding IC50.
Molecular target: Cholesteryl ester transfer protein (Homo sapiens, UniProt P11597)
Sequence (P11597 whole entry): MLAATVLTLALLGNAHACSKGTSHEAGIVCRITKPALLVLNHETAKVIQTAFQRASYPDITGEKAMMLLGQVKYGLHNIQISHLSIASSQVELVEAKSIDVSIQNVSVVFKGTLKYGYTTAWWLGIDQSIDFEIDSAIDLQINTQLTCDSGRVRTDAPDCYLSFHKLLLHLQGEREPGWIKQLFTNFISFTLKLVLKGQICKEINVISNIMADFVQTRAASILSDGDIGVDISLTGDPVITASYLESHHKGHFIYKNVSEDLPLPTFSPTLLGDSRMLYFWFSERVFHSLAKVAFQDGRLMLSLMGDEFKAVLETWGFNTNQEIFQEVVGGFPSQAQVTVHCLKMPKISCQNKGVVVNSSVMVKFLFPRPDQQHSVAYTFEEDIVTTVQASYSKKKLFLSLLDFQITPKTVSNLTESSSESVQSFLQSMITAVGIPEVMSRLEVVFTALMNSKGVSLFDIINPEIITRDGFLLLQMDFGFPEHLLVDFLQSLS
Test: In vitro human CETP inhibitory activity assessed by measuring the rate of [3H]cholesteryl ester ([3H]CE) from HDL donor particles to LDL acceptor particles using human serum by serum transfer assay

# compound, IC50, µM
measured = [
    ("OC(CN(Cc1cccc(-c2cccs2)c1)c1cccc(Oc2ccccc2)c1)C(F)(F)F (configuration not stated)", 83),
    ("OC(CN(Cc1cccc(-c2ccccc2)c1)c1cccc(Oc2ccccc2)c1)C(F)(F)F (configuration not stated)", 47),
]

---

Biological target: Cholesteryl ester transfer protein (Homo sapiens)
Assay: Inhibition of recombinant human CETP mediated transfer of [3H]cholesteryl ester from HDL to LDL
pIC50: −log10 of the molar value.
Property: pIC50; scope: individual compounds

# compound, tested on, pIC50
rows = [
    ("OC(CN(Cc1ccc(F)c(-c2ccco2)c1)c1cccc(Oc2ccccc2)c1)C(F)(F)F (stereo not given)", "Cholesteryl ester transfer protein (Homo sapiens)", 6.14),
    ("OC(CN(Cc1cccc(-c2cccnc2)c1)c1cccc(Oc2ccccc2)c1)C(F)(F)F (stereo not given)", "Cholesteryl ester transfer protein (Homo sapiens)", 4.84),
    ("OC(CN(Cc1cccc(-c2cccs2)c1)c1cccc(Oc2ccccc2)c1)C(F)(F)F (stereo not given)", "Cholesteryl ester transfer protein (Homo sapiens)", 5.95),
    ("Cc1ccc(CN(CC(O)C(F)(F)F)c2cccc(Oc3ccccc3)c2)cc1-c1ccco1 (stereo not given)", "Cholesteryl ester transfer protein (Homo sapiens)", 5.40),
    ("OC(CN(Cc1cccc(-c2ccccc2)c1)c1cccc(Oc2ccccc2)c1)C(F)(F)F (stereo not given)", "Cholesteryl ester transfer protein (Homo sapiens)", 5.35),
]
